# TARGET OR SYSTEM: Amyloid-beta precursor protein (Homo sapiens)
# Sequence (P05067 whole entry): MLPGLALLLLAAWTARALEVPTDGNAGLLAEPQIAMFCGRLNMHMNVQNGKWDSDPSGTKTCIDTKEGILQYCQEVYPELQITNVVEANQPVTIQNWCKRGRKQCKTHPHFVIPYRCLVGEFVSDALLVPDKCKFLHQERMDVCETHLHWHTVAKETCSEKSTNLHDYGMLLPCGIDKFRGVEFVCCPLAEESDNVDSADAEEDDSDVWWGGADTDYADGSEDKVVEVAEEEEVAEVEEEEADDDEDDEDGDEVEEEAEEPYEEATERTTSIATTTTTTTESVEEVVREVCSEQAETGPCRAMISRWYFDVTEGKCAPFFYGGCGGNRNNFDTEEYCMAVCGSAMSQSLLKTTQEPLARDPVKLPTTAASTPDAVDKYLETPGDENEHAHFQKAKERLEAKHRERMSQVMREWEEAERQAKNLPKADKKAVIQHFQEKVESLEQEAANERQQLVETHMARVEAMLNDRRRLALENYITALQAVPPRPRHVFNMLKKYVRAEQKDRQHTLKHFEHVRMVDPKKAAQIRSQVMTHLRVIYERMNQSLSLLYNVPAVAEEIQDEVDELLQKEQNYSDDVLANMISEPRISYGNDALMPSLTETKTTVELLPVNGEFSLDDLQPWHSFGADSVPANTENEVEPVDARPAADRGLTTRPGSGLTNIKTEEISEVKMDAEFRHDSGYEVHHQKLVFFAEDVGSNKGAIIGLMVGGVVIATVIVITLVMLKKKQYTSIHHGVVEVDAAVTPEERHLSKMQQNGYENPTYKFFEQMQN
# MEASUREMENT DESCRIPTION: Binding affinity to human amyloid beta (1 to 42) fibril assessed as increase in intrinsic fluorescence intensity at 2.25 uM relative to equimolar monomeric specie
Hi there, I'd appreciate the recorded fold change (FC) for every entry that follows.
Numbers only.

For each of the compounds below, note its fold change (FC).
1. CN(CCF)c1ccc(/C=C\c2nc3ccccc3n2C)cc1
2. CN(CCF)c1ccc(/C=C\c2nc3ccccc3o2)cc1
3. CN(CCF)c1ccc(/C=C/c2nc3ccccc3s2)cc1
4. CN(CCF)c1ccc(/C=C/c2nc3ccccc3[nH]2)cc1
5. CN(CCF)c1ccc(/C=C/c2nc3ccccc3o2)cc1
6. CN(CCF)c1ccc(/C=C/c2nc3ccccc3n2C)cc1
7. CN(CCF)c1ccc(/C=C\c2nc3ccccc3s2)cc1

OUT:
5.9
1.28
7.41
2.71
2.69
5.17
11.3

====

# TARGET OR SYSTEM: Amyloid-beta precursor protein (Homo sapiens)
# MEASUREMENT DESCRIPTION: Binding affinity to human amyloid beta (1 to 42) fibril by fluorescence intensity assay
Hi there, I'd appreciate the recorded Kd for every entry that follows.
Give bare numbers, in µM⁻¹.

See these solved cases before continuing.
CN(CCF)c1ccc(/C=C/c2nc3ccccc3o2)cc1 ... 4.48
CN(CCF)c1ccc(/C=C\c2nc3ccccc3s2)cc1 ... 23.96
CN(CCF)c1ccc(/C=C\c2nc3ccccc3n2C)cc1 ... 3.52

For each of the compounds below, note its Kd.
1. CN(CCF)c1ccc(/C=C/c2nc3ccccc3n2C)cc1
2. CN(CCF)c1ccc(/C=C/c2nc3ccccc3[nH]2)cc1
3. CN(CCF)c1ccc(/C=C/c2nc3ccccc3s2)cc1
4. CN(CCF)c1ccc(/C=C\c2nc3ccccc3o2)cc1

OUT:
1. 5.19
2. 3.63
3. 10.67
4. 5.99

====

Hi there, I'd appreciate the recorded Kd for every entry that follows.
# MEASUREMENT DESCRIPTION: Binding affinity to human insulin fibril by fluorescence intensity assay
One number for each entry, in µM⁻¹.

See these solved cases before continuing.
CN(CCF)c1ccc(/C=C/c2nc3ccccc3s2)cc1 ... 1.79
Cc1ccc2c(c1)sc(-c1ccc(N(C)C)cc1)[n+]2C.[Cl-] ... 2.54
CN(CCF)c1ccc(/C=C\c2nc3ccccc3s2)cc1 ... 8.59

For each of the molecules below, note its Kd.
1. CN(CCF)c1ccc(/C=C/c2nc3ccccc3o2)cc1
2. CN(CCF)c1ccc(/C=C/c2nc3ccccc3n2C)cc1
3. CN(CCF)c1ccc(/C=C/c2nc3ccccc3[nH]2)cc1

OUT:
2.28
1.22
1.54

For each of the molecules below, note its Kd.
1. CN(CCF)c1ccc(/C=C\c2nc3ccccc3o2)cc1
2. CN(CCF)c1ccc(/C=C\c2nc3ccccc3n2C)cc1

OUT:
[3.24, 3.86]

====

Hi there, I'd appreciate the recorded Kd for every entry that follows.
# TARGET OR SYSTEM: Alpha-synuclein (Homo sapiens)
# MEASUREMENT DESCRIPTION: Binding affinity to human alpha-synuclein fibril by fluorescence intensity assay
Give bare numbers, in µM⁻¹.

See these solved cases before continuing.
CN(CCF)c1ccc(/C=C/c2nc3ccccc3s2)cc1 ... 1.38
CN(CCF)c1ccc(/C=C\c2nc3ccccc3o2)cc1 ... 7.43
CN(CCF)c1ccc(/C=C/c2nc3ccccc3n2C)cc1 ... 1.81
CN(CCF)c1ccc(/C=C/c2nc3ccccc3o2)cc1 ... 3.24
CN(CCF)c1ccc(/C=C\c2nc3ccccc3n2C)cc1 ... 1.85

For each of the compounds below, note its Kd.
1. CN(CCF)c1ccc(/C=C/c2nc3ccccc3[nH]2)cc1
2. CN(CCF)c1ccc(/C=C\c2nc3ccccc3s2)cc1

OUT:
1. 3.31
2. 7.35

====

# Species on record: Homo sapiens
# MEASUREMENT DESCRIPTION: Binding affinity to human […] fibril assessed as increase in intrinsic fluorescence intensity at 2.25 uM relative to equimolar monomeric specie
QUANTITY NAME: fold change (FC)
Give bare numbers.

See these solved cases before continuing.
CN(CCF)c1ccc(/C=C\c2nc3ccccc3o2)cc1 ... 1.63
CN(CCF)c1ccc(/C=C/c2nc3ccccc3o2)cc1 ... 1.98
CN(CCF)c1ccc(/C=C\c2nc3ccccc3s2)cc1 ... 9.48
CN(CCF)c1ccc(/C=C/c2nc3ccccc3[nH]2)cc1 ... 4.5
CN(CCF)c1ccc(/C=C/c2nc3ccccc3n2C)cc1 ... 2.23

For each of the compounds below, note its fold change (FC).
1. CN(CCF)c1ccc(/C=C\c2nc3ccccc3n2C)cc1
2. CN(CCF)c1ccc(/C=C/c2nc3ccccc3s2)cc1

OUT:
[2.84, 4.48]

====

# Species on record: Homo sapiens
# MEASUREMENT DESCRIPTION: Binding affinity to human insulin fibril assessed as increase in intrinsic fluorescence intensity at 2.25 uM relative to equimolar monomeric specie
Response key: rule met means fold change (FC) >= 3; rule not met means fold change (FC) < 3.

CN(CCF)c1ccc(/C=C/c2nc3ccccc3o2)cc1 ... rule not met
CN(CCF)c1ccc(/C=C\c2nc3ccccc3o2)cc1 ... rule not met
CN(CCF)c1ccc(/C=C/c2nc3ccccc3s2)cc1 ... rule met
CN(CCF)c1ccc(/C=C/c2nc3ccccc3n2C)cc1 ... rule met
CN(CCF)c1ccc(/C=C/c2nc3ccccc3[nH]2)cc1 ... rule not met

Then there is this molecule:
IN: State whether the measured fold change (FC) reaches 3, counting equality as reaching it, for CN(CCF)c1ccc(/C=C\c2nc3ccccc3n2C)cc1
OUT: rule not met

Just for reference, ChEMBL document CHEMBL1926592 is where these values come from.
